Hi! I'm sharing some IC50 results obtained with FAP (Homo sapiens (Human)).
Sequence (Q12884 whole entry): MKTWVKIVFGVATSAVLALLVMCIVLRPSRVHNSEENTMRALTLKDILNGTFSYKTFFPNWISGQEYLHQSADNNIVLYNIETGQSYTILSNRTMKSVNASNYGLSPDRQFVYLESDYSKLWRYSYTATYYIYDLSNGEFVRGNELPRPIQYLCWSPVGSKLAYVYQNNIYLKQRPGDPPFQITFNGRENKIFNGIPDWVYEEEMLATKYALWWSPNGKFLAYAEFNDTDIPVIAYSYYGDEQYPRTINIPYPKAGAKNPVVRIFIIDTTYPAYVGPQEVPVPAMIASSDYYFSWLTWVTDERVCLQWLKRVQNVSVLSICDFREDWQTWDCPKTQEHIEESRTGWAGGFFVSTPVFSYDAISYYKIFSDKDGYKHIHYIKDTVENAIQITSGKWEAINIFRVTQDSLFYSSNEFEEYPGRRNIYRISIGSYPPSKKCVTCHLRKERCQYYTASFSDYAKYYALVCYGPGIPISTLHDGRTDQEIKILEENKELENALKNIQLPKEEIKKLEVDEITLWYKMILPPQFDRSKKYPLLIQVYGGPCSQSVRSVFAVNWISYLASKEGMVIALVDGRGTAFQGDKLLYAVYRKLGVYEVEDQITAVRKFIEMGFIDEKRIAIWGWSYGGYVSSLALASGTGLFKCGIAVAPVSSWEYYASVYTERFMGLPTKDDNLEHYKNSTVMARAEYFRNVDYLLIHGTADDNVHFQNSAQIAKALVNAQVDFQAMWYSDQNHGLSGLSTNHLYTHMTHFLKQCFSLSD

1. CC(=O)NCCCC[C@H](NC(=O)[C@H](CCCCNC(=O)CN1CCN(CC(=O)O)CCN(CC(=O)O)CC1)NC(=O)CCOCCOCCOCCNC(=O)COc1ccc2c(C(=O)NCC(=O)N3CCC[C@H]3C#N)ccnc2c1)C(=O)O [RTX-1339S]
0.1 to 0.5 nM
2. CCCCCC(=O)NCCCC[C@H](NC(=O)[C@H](CCCCNC(=O)CN1CCN(CC(=O)O)CCN(CC(=O)O)CCN(CC(=O)O)CC1)NC(=O)CCOCCOCCOCCNC(=O)COc1ccc2c(C(=O)NCC(=O)N3CCC[C@H]3C#N)ccnc2c1)C(=O)O [RTX-1360S]
< 0.1 nM
3. CC(=O)NCCCC[C@H](NC(=O)[C@H](CCCCNC(=S)Nc1ccc(CC2CN(CC(=O)O)CCN(CC(=O)O)CCN2CC(=O)O)cc1)NC(=O)CCOCCOCCOCCNC(=O)COc1ccc2c(C(=O)NCC(=O)N3CCC[C@H]3B(O)O)ccnc2c1)C(=O)O (some centres unmarked) [RTX-1319R]
0.1 to 0.5 nM
4. CCCCCC(=O)NCCCC[C@H](NC(=O)[C@H](CCCCNC(=S)Nc1ccc(CC2CN(CC(=O)O)CCN(CC(=O)O)CCN2CC(=O)O)cc1)NC(=O)CCOCCOCCOCCNC(=O)COc1ccc2c(C(=O)NCC(=O)N3CCC[C@H]3C#N)ccnc2c1)C(=O)O (some centres unmarked) [RTX-1318S]
< 0.1 nM
5. CCCCCCCC(=O)NCCCC[C@H](NC(=O)[C@H](CCCCNC(=O)CN1CCN(CC(=O)O)CCN(CC(=O)O)CCN(CC(=O)O)CC1)NC(=O)CCOCCOCCOCCNC(=O)COc1ccc2c(C(=O)NCC(=O)N3CCC[C@H]3B(O)O)ccnc2c1)C(=O)O [RTX-1355R]
0.1 to 0.5 nM
6. CCCCCC(=O)NCCCC[C@H](NC(=O)[C@H](CCCCNC(=O)CN1CCN(CC(=O)O)CCN(CC(=O)O)CC1)NC(=O)CCOCCOCCOCCNC(=O)COc1ccc2c(C(=O)NCC(=O)N3CCC[C@H]3C#N)ccnc2c1)C(=O)O [RTX-1363S]
< 0.1 nM
7. CCCCCC(=O)NCCCC[C@H](NC(=O)[C@H](CCCCNC(=O)CN1CCN2CCN(CC1)CC(=O)[O][Cu][O]C(=O)C2)NC(=O)CCOCCOCCOCCNC(=O)COc1ccc2c(C(=O)NCC(=O)N3CCC[C@H]3C#N)ccnc2c1)C(=O)O [RTX-1363S-Cu]
< 0.1 nM

Returns the measured IC50 for the input compound. Input: CC(=O)NCCCC[C@H](NC(=O)[C@H](CCCCNC(=S)Nc1ccc(CC2CN(CC(=O)O)CCN(CC(=O)O)CCN2CC(=O)O)cc1)NC(=O)CCOCCOCCOCCNC(=O)COc1ccc2c(C(=O)NCC(=O)N3CCC[C@H]3C#N)ccnc2c1)C(=O)O (some centres unmarked) [RTX-1312S] < 0.1 nM
